study.target: Hck (UniProt P08631)
Sequence (P08631 whole entry, looked up): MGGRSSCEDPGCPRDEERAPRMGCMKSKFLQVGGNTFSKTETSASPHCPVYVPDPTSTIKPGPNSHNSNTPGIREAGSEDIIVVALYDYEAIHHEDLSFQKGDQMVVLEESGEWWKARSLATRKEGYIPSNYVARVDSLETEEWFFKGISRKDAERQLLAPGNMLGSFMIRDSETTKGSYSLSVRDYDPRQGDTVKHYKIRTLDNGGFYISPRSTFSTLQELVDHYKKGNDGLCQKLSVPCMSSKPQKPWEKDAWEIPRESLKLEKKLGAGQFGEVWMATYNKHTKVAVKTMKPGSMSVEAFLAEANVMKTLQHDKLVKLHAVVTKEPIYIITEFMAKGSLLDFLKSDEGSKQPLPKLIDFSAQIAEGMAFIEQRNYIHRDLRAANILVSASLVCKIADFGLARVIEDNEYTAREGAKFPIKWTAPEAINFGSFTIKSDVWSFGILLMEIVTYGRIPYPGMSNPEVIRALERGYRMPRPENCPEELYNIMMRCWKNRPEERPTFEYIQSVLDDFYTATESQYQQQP
measurement.description: phosphorylation enrichment, bacterial display (enrichment ratio); higher = better substrate or ligand; peptides without Tyr show the background;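 note: 11-residue human phosphosite peptides and single-mutation variants displayed on the E. coli surface, counted by deep sequencing, each peptide's frequency after selection divided by its frequency in the unselected input library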;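 note: frequency after pTyr selection over input frequency; kinase dosed for 20-30% of maximal phosphorylation in three min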
# cutoff 0.5 applies to phosphorylation enrichment; >= gives 1, < gives 0

- sequence: "ANARMYGVLPW [PLP1_Y207_D203N]"
  class.assignment: 1
- sequence: "IRKDLYSNNVL [ACTC1_Y296_A297S]"
  class.assignment: 0
- sequence: "FTRNFYVQAVL [CYBA_Y88_R90Q_YF]"
  class.assignment: 0
- sequence: "ILKPDYQPLAI [HYDIN_Y1072]"
  class.assignment: 0
- sequence: "RSHLPYDVTPE [IQGAP3_Y1098]"
  class.assignment: 1
- sequence: "LVMFIYAIFWM [SCN1A_Y1684_G1688W]"
  class.assignment: 1
- sequence: "FDNPVYQKTTE [LDLR_Y828]"
  class.assignment: 1
- sequence: "DRPASYKKKSM [PDGFRA_Y768]"
  class.assignment: 0
- sequence: "FKDVTYLKEEK [UBE3A_Y127_T129K]"
  class.assignment: 0
- sequence: "VIVRMYDYHVL [RPF2_Y109_G106V]"
  class.assignment: 1
- sequence: "PDMHSYMVRYN [GRIN2D_Y732]"
  class.assignment: 1
- sequence: "IEDPYYGNDSD [ACP1_Y133]"
  class.assignment: 1
- sequence: "VNFGAYINDFN [GLB1_Y488_K493N_YF]"
  class.assignment: 0
- sequence: "DSILVYQRKEQ [USH2A_Y1909_G1911R]"
  class.assignment: 1
- sequence: "DVFLKHLNFAT [PDE6B_Y212_Y212H]"
  class.assignment: 0
- sequence: "NGRQCYSCRGN [PLAUR_Y217_K220R]"
  class.assignment: 0
- sequence: "QNTGYYYDLYG [PTPN11_Y62_D61Y]"
  class.assignment: 1
- sequence: "GSIQQYIYKQE [PRG4_Y1271]"
  class.assignment: 0
- sequence: "GHEFIYVDPMQ [PDGFRA_Y574_YF]"
  class.assignment: 1
- sequence: "VIKDKYPQARY [APTX_Y209_K211Q]"
  class.assignment: 0
- sequence: "SWSTSYSGYRC [NKAPL_Y91_Y96C]"
  class.assignment: 1
- sequence: "EGGFAYVPLKD [PRIM2_Y208_D204G]"
  class.assignment: 0
- sequence: "TFHNTYHSHMR [IL1RAPL1_Y615_Q618H]"
  class.assignment: 1
- sequence: "LKVDVYRRSHK [FUT3_Y222_G223R]"
  class.assignment: 1
- sequence: "YSNKLYYQLEQ [PDPR_Y109]"
  class.assignment: 1

====

study.target: EPHB1 (UniProt P54762)
Sequence (P54762 whole entry, looked up): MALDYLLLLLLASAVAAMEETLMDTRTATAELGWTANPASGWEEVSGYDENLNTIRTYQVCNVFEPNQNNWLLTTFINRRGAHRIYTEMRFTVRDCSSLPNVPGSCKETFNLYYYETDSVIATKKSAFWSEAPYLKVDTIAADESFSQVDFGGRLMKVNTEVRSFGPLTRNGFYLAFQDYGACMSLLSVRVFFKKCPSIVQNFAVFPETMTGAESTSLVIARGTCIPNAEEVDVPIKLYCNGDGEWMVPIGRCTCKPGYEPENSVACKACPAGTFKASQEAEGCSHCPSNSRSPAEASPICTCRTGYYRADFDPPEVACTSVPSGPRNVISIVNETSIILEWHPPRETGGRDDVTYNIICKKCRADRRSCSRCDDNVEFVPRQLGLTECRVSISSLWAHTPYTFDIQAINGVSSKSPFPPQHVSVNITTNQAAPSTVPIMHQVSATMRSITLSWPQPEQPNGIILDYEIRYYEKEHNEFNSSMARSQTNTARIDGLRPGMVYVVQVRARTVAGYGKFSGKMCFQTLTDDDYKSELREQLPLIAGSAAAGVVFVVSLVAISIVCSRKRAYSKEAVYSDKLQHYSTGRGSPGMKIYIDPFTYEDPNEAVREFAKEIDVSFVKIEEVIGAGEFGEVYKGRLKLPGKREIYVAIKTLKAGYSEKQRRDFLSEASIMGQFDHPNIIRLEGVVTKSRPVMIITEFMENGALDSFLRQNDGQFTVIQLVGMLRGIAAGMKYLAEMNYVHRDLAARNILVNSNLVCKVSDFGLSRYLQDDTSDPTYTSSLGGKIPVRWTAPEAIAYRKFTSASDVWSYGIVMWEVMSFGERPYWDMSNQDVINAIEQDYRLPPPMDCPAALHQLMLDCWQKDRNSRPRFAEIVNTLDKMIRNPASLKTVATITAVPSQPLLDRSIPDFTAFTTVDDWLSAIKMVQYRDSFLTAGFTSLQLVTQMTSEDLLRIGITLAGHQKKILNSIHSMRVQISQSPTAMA
measurement.description: phosphorylation enrichment, bacterial display (enrichment ratio); higher = better substrate or ligand; peptides without Tyr show the background
# cutoff 0.6 applies to phosphorylation enrichment; >= gives Criterion met, < gives Criterion not met

- sequence: "EAAFVYVISSA [WNT4_Y113_A114V]"
  study.target: "EPHB1 (UniProt P54762)"
  class.assignment: "Criterion met"
- sequence: "QFFQGYFNNNF [ZNF236_Y644_S643G]"
  study.target: "EPHB1 (UniProt P54762)"
  class.assignment: "Criterion not met"
- sequence: "ATHRSYDSDNP [MMUT_Y146_G145S]"
  study.target: "EPHB1 (UniProt P54762)"
  class.assignment: "Criterion not met"
- sequence: "QQTYTYDSGIH [JUP_Y22]"
  study.target: "EPHB1 (UniProt P54762)"
  class.assignment: "Criterion met"
- sequence: "KELALYDENWF [RPS19_Y48_P47L]"
  study.target: "EPHB1 (UniProt P54762)"
  class.assignment: "Criterion met"
- sequence: "FVHDNYVIQRT [CPS1_Y1450_R1453Q]"
  study.target: "EPHB1 (UniProt P54762)"
  class.assignment: "Criterion met"
- sequence: "RRETPYGGGGG [FUS_Y526_R524T]"
  study.target: "EPHB1 (UniProt P54762)"
  class.assignment: "Criterion not met"
- sequence: "SVEELYAIPPD [PEAK1_Y797]"
  study.target: "EPHB1 (UniProt P54762)"
  class.assignment: "Criterion met"
- sequence: "DFPIGYPSYLA [TBCK_Y153]"
  study.target: "EPHB1 (UniProt P54762)"
  class.assignment: "Criterion not met"
- sequence: "LKGQVYILGRE [ASS1_Y359]"
  study.target: "EPHB1 (UniProt P54762)"
  class.assignment: "Criterion not met"
- sequence: "GQKTLYSFFSP [UNG_Y8]"
  study.target: "EPHB1 (UniProt P54762)"
  class.assignment: "Criterion met"
- sequence: "FISLIYTNFEV [GSTP1_Y109_A114V_YF]"
  study.target: "EPHB1 (UniProt P54762)"
  class.assignment: "Criterion met"
- sequence: "LIGTPYWMAPE [PAK5_Y608_V604I]"
  study.target: "EPHB1 (UniProt P54762)"
  class.assignment: "Criterion met"
- sequence: "ADEEEYEIIAA [FEStide_E_2014]"
  study.target: "EPHB1 (UniProt P54762)"
  class.assignment: "Criterion met"
- sequence: "LLKNMYLMLDN [STAT1_Y203_K201N]"
  study.target: "EPHB1 (UniProt P54762)"
  class.assignment: "Criterion met"
- sequence: "VDSTEYEVASQ [SLC7A7_Y7]"
  study.target: "EPHB1 (UniProt P54762)"
  class.assignment: "Criterion met"
- sequence: "KNEVLYDGENH [ARFGEF1_Y314]"
  study.target: "EPHB1 (UniProt P54762)"
  class.assignment: "Criterion not met"
- sequence: "KDIENYIQDGK [RAD50_Y964]"
  study.target: "EPHB1 (UniProt P54762)"
  class.assignment: "Criterion not met"
- sequence: "FGSSSYGGAGG [RPA2_Y14_YF]"
  study.target: "EPHB1 (UniProt P54762)"
  class.assignment: "Criterion not met"
- sequence: "IRDLKYTIENP [SND1_Y178]"
  study.target: "EPHB1 (UniProt P54762)"
  class.assignment: "Criterion not met"
- sequence: "KMLEKYKERLN [TLK2_Y259]"
  study.target: "EPHB1 (UniProt P54762)"
  class.assignment: "Criterion not met"
- sequence: "GHRPVYSEDEQ [CHST6_Y362_Y358H]"
  study.target: "EPHB1 (UniProt P54762)"
  class.assignment: "Criterion not met"
- sequence: "VMLENYSNLLS [ZFP69_Y109_V113L]"
  study.target: "EPHB1 (UniProt P54762)"
  class.assignment: "Criterion met"
- sequence: "TEGNGYISFNE [LCP1_Y28_D24E]"
  study.target: "EPHB1 (UniProt P54762)"
  class.assignment: "Criterion met"
- sequence: "APQFTYTQGGQ [FLNA_Y1763_A1764T_YF]"
  study.target: "EPHB1 (UniProt P54762)"
  class.assignment: "Criterion not met"
- sequence: "TSEASYYKSLN [NGEF_Y288]"
  study.target: "EPHB1 (UniProt P54762)"
  class.assignment: "Criterion not met"
- sequence: "HRFAAYFQQGD [GPI_Y351]"
  study.target: "EPHB1 (UniProt P54762)"
  class.assignment: "Criterion met"
- sequence: "RLCQDYDTIGP [ANK1_Y1073]"
  study.target: "EPHB1 (UniProt P54762)"
  class.assignment: "Criterion met"
- sequence: "GHEFIYVDPMQ [PDGFRA_Y574_YF]"
  study.target: "EPHB1 (UniProt P54762)"
  class.assignment: "Criterion met"

Taken from the supplement of paper PMC10065799.
